// Neut IC50 subtype B lookup, one value per entry
target: RSV F on RSV subtype B virus (mKate-RSV B 18537) (respiratory syncytial virus B 18537, UniProt P13843 26-574); assay: cell-based or functional assay
Sequence (P13843 26-574): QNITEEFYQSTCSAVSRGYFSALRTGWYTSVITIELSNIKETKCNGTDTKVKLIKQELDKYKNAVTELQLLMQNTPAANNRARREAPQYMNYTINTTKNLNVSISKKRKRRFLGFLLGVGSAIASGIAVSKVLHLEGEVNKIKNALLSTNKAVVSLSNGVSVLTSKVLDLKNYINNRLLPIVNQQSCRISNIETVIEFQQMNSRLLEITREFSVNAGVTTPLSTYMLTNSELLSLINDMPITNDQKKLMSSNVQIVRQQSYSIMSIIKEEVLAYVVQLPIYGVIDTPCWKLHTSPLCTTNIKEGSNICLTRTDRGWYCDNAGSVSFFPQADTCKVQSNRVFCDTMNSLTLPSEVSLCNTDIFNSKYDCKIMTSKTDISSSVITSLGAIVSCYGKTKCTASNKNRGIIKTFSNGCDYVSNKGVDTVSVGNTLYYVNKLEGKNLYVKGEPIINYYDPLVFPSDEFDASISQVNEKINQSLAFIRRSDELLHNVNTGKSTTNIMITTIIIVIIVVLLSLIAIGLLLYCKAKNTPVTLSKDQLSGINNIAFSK
Enter your answer as a number in µg/mL; do not include the unit.

Field: example entries. Status: answers known.
binder | Neut IC50 subtype B (µg/mL)
ADI-25478 (antibody, V domains shown, full-length IgG) VH: EVQLLESGGGLVKPGGSLRLSCAASGFTFSSYSMNWVRQAPGKGLEWVSSISSSSSYIYYADSVKGRFTISRDNAKNSLYLQMNSLRAEDTAVYYCARLDYSNYYYYMDVWGKGTTVTVSS VL: QPVLTQPPSVSGAPGQRVTISCTGSSSNIGAGYDVHWYQQLPGTAPKLLIYGNSNRPSGVPDRFSGSKSGTSASLAITGLQAEDEADYYCQSYDSSLSGYVFGTGTKLTVL | 3.52
ADI-24832 (antibody, V domains shown, full-length IgG) VH: EVQLVESGGGLVKPGGSLRLSCAASGFTFSSYSMNWVRQAPGKGLEWVSSISASSSYIFYSDLVKGRFTISRDNAKNSLYLQMNSLRAEDTAVYYCARAGYYYGSGSYYVDYWGQGTLVTVSS VL: QSVLTQPPSVSGAPGQRVAISCTGSSSNIGAGYDVHWYQQLPGTAPKLLIYGNSNRPSGVPDRFSGSKSGTSASLAITGLQAEDEADYYCQSYGSSLSGWVFGGGTKLTVL | 0.24

From here, focus on the item given below.
# binder ADI-25562 (antibody, V domains shown, full-length IgG; also called Ab 453) VH: QVQLVESGGGLVKPGGSLRLSCAASGFTFSDYYMSWIRQAPGKGLEWVSYISSSSSYTNYADSVKGRFTISRDNAKNSLYLQMNSLRAEDTAVYYCARVGYSSSWYNYFDYWGQGTLVTVSS VL: SYVLTQPPSVSGAPGQRVTISCTGSSSNIGAGYDVHWYQQLPGTAPKLLIYGNSNRPSGVPDRFSGSKSGTSASLAITGLQAEDEADYYCQSYDSSLSGPVFGGGTKLTVL ; its Neut IC50 subtype B = 1.14

Source of measurements: patent US20260258115A1
